The reported numbers originate from PubChem BioAssay (NCATS).

# Measurement Notes: Counterscreen for APE1 Inhibitors: Fluorescent Dye Displacement Validation Assay (AID 1707)
# Condition Parameters: fluorescent dye displacement from DNA; series mostly up to 57.1 µM
Records with an inconclusive call do not appear. The source made the active and inactive calls. Calls follow the shape of the dose curve; as a rule, active = well fitted inhibition curve with a large enough effect; inconclusive = small, poorly fitted or top-dose-only effect; inactive = no such curve, though single readings can be large or run the other way.
Hi there, use one of these labels in your reply, thanks! 1.0 for active, 0.0 for inactive

| Smiles Entry | Assigned Class |
| --- | --- |
| N[C@H](Cc1ccc(O)c(O)c1)C(=O)O | 0.0 |
| N.N.N.N.N.N.N.N.N.N.N.N.N.N.O.O.[Cl-].[Cl-].[Cl-].[Cl-].[Cl-].[Cl-].[Ru].[Ru].[Ru] | 1.0 |
| CC(=O)NCCc1ccc(O)c(O)c1 | 0.0 |

**Q:** # outcome recorded in this test, key = COc1ccc2c(c1)c(CC(=O)O)c(C)n2Cc1ccc(F)cc1
**A:** 0.0

**Q:** What did this assay record as the result for CCCCC#Cc1nc(N)c2ncn([C@@H]3O[C@H](C(=O)NCC)[C@@H](O)[C@H]3O)c2n1 ?
**A:** 0.0
